Reference for the values: PubChem BioAssay (NCI)

System: OVCAR-4 ovarian
Assay: NCI tumour cell line growth inhibition, 48 h
Consider the following compounds; for each one, report its TGI.

Given item CC1(c2nc3ccccc3[nH]2)CCC(C(N)=O)C(C)(C)O1 (stereo not drawn) , the value recorded as its TGI is > 100 µM

Given item O=C(O)CCCCCO , the value recorded as its TGI is > 100 µM

Given item CC(C)=CCC[C@](C)(O[C@@H]1O[C@H](CO)[C@@H](O)[C@H](O)[C@H]1O)[C@H]1CC[C@]2(C)[C@@H]1[C@H](O)C[C@@H]1[C@@]3(C)CC[C@H](O)C(C)(C)[C@@H]3[C@@H](O[C@@H]3O[C@H](CO)[C@@H](O)[C@H](O)[C@H]3O)C[C@]12C , the value recorded as its TGI is > 100 µM

----------
System: MOLT-4 leukemia
Test: NCI tumour cell line growth inhibition, 48 h
valueKind: TGI

Given item O=C1c2cc3c(cc2[C@@H]2[C@H]1c1ccc([N+](=O)[O-])cc1C(=O)N2CCCCl)OCO3 , the value recorded as its TGI is > 100 µM

Given item C/C1=C\C/C=C(\C)[C@H]2CC(CC/C(C)=C/CC1)[C@@](C)(CO)O2 , the value recorded as its TGI is > 100 µM

Given item COCOCC1CCCN1CN1CCC[C@H]1COCOC (stereo partly drawn) , the value recorded as its TGI is > 100 µM

----------
System: MCF7 breast
Experiment: NCI tumour cell line growth inhibition, 48 h
valueKind: TGI

Given item Cc1ccsc1C(=O)C(CC(=O)c1cccs1)c1ccsc1 (stereo not drawn) , the value recorded as its TGI is > 100 µM

Given item O=C(Nc1sccc1S(=O)(=O)c1ccc(Cl)cc1)C(F)(F)F , the value recorded as its TGI is > 100 µM

Given item O=C(/C=C\c1ccccc1)Oc1ccc(/C=C2\CCCCC2=O)cc1 , the value recorded as its TGI is > 100 µM

----------
Tested on: HT29 colon
Experiment: NCI tumour cell line growth inhibition, 48 h
Binary call on TGI: Condition met from 30 µM upward, Condition not met beneath that.

Is the recorded value of TGI equal to or greater than 30 µM for this compound? COc1ccc(N2C(=O)c3cccnc3S2(=O)=O)cc1
Condition met

Is the recorded value of TGI equal to or greater than 30 µM for this compound? O=C(/C=C\c1ccccc1)Oc1ccc(/C=C2\CCCCC2=O)cc1
Condition met

Is the recorded value of TGI equal to or greater than 30 µM for this compound? COc1cc(C(=O)C/C(CCC(=O)Nc2ccc(Cl)cc2Cl)=N/NC(=O)C(N)=O)ccc1O
Condition met

Is the recorded value of TGI equal to or greater than 30 µM for this compound? Cc1ccc(C(CC(=O)C(C)(C)CN2CCCCC2)SCCS(=O)(=O)O)cc1 (centres undefined)
Condition met

Is the recorded value of TGI equal to or greater than 30 µM for this compound? CCOC(=O)C(Cc1ccccc1)NC(=O)OC(C)(C)C (centres undefined)
Condition met

Is the recorded value of TGI equal to or greater than 30 µM for this compound? OCCNc1ncnc2c1ncn2C1OC(CO)C(O)C1O (centres undefined)
Condition met

Is the recorded value of TGI equal to or greater than 30 µM for this compound? Cc1ccsc1C(=O)C(CC(=O)c1cccs1)c1ccsc1 (centres undefined)
Condition met

Is the recorded value of TGI equal to or greater than 30 µM for this compound? COc1cc([C@@H]2c3cc4c(cc3[C@@H](NCc3ccccc3)C3COC(=O)[C@@H]32)OCO4)cc(OC)c1O (some centres undefined)
Condition met

Is the recorded value of TGI equal to or greater than 30 µM for this compound? Cc1c(C(=O)/C=C/c2ccccc2Cl)[n+](=O)c2ccccc2n1[O-]
Condition met

Is the recorded value of TGI equal to or greater than 30 µM for this compound? CN(C)CC/C(=N\Nc1ccc(Cl)c(Cl)c1)c1ccccc1
Condition not met

Is the recorded value of TGI equal to or greater than 30 µM for this compound? Cc1cc2c3ccccc3ccc2[n+]2ccccc12
Condition met

Is the recorded value of TGI equal to or greater than 30 µM for this compound? COc1cc2c(cc1OC)C1CCc3ccccc3CN1CC2 (centres undefined)
Condition met

Is the recorded value of TGI equal to or greater than 30 µM for this compound? O=C(/C=C/c1ccccc1O)c1cccnc1
Condition met

Is the recorded value of TGI equal to or greater than 30 µM for this compound? CCN1C(=O)c2ccccc2C1(O)c1ccc(Cl)cc1 (centres undefined)
Condition met

Is the recorded value of TGI equal to or greater than 30 µM for this compound? CC(=O)OC1CCC2(C)C(CCC3C4CC=C(C(C)=O)C4(C)OC(=O)CC32)C1 (centres undefined)
Condition not met

Is the recorded value of TGI equal to or greater than 30 µM for this compound? CCN(C(=O)CCl)C(C)(C)C(SSSC(c1ccc(Cl)cc1)C(C)(C)N(CC)C(=O)CCl)c1ccc(Cl)cc1 (centres undefined)
Condition not met

Is the recorded value of TGI equal to or greater than 30 µM for this compound? S=C(N/N=C(/c1ccccc1)c1ccccn1)Nc1ccc(Cl)cc1
Condition met

Is the recorded value of TGI equal to or greater than 30 µM for this compound? CCCNC(C#N)c1ccc(OCCCCCCCCCCOc2ccc(C(C#N)NCCC)cc2)cc1 (centres undefined)
Condition met

----------
Consider the following molecules; for each one, report its TGI.
Tested on: HOP-62 NSCLC
Test: NCI tumour cell line growth inhibition, 48 h

Given item COc1ccc(/C=C2\SC(c3ccc(OC)cc3)N(NC(=O)Cc3ccccc3)C2=O)cc1 (stereo unspecified) , the value recorded as its TGI is > 100 µM

Given item CO/N=C(/COc1c(-c2ccccc2)oc2ccccc2c1=O)c1ccc(OC)cc1 , the value recorded as its TGI is > 100 µM

Given item CC[C@H](C)[C@H](NC(=O)Nc1ccccc1)C(=O)N(C)[C@H](C[C@@H](OC(C)=O)c1nc(C(=O)N[C@@H](Cc2ccccc2)C[C@H](C)C(=O)OC)cs1)C(C)C , the value recorded as its TGI is > 100 µM

Given item CN(C)CCNC(=O)Cn1ccc(=O)c2ccc([N+](=O)[O-])cc21 , the value recorded as its TGI is > 100 µM

Given item COc1ccc2c(c1)sc1nc(-c3ccccc3)c(-c3ccc(O)c(OC)c3)n12 , the value recorded as its TGI is > 100 µM

Given item N#CCN1CCOCCOCCN(CC#N)CCOCCOCC1 , the value recorded as its TGI is > 100 µM

Given item CC[N+]1(C)CCC(O)(c2ccccc2)C(C(=O)c2ccccc2)C1 (stereo unspecified) , the value recorded as its TGI is 48.2 µM

Given item NC(=O)Nc1cc(O)ccc1N=Nc1ccc(S(=O)(=O)Nc2ccccn2)cc1 , the value recorded as its TGI is > 100 µM

Given item COc1cc(/C=C/c2ccc(OC(C)=O)cc2)cc(OC)c1OC , the value recorded as its TGI is > 100 µM

Given item O=C(NCCNCCNCCNC(=O)c1cc(-c2ccccc2)nc2ccccc12)c1cc(-c2ccccc2)nc2ccccc12 , the value recorded as its TGI is 5.96 µM

Given item CC1=C(C#N)C2C(=C(N)Oc3ccccc32)C(N)=N1 (stereo unspecified) , the value recorded as its TGI is > 100 µM

Given item O=C(O)CCCSc1nc2ccccc2s1 , the value recorded as its TGI is > 100 µM

Given item O=C(O)CCCCCO , the value recorded as its TGI is > 100 µM

Given item COC(=O)[C@]12CCC(C)(C)C[C@H]1C1=CC[C@@H]3[C@@]4(C)CC[C@H](OC5OC(CO)C(O)C(O)C5OC5OC(CO)C(O)C(O)C5O)C(C)(C)[C@@H]4CC[C@@]3(C)[C@]1(C)CC2 (stereo partly specified) , the value recorded as its TGI is 25.3 µM

Given item COc1cc(C)c2c(=O)c3c(oc2c1)C(=O)c1c(O)c(OC)cc(O)c1C3=O , the value recorded as its TGI is 3.98 µM

Given item CCOC(=O)C(=Cc1cc(OC)ccc1OC)C(=O)OCC , the value recorded as its TGI is 23.6 µM

----------
Tested on: MALME-3M melanoma
Experiment: NCI tumour cell line growth inhibition, 48 h
valueKind: TGI

Record CC(=O)Nc1ccccc1-c1cnc2ccccc2n1 ; system MALME-3M melanoma; TGI = > 100 µM

Record NCCCC1NC(=O)/C(=C(O)/C=C/C2CCC[C@@H]2CC2SCCS2)C1=O (some centres undefined) ; system MALME-3M melanoma; TGI = > 100 µM

Record O=C(O)C1=NNC(C(=O)O)=NN1 ; system MALME-3M melanoma; TGI = > 100 µM

Record Cc1nc(-c2nc(C)c(C(=O)NN(C)C)s2)sc1C(=O)NN(C)C ; system MALME-3M melanoma; TGI = > 100 µM

Record O=c1cc(O)c2ccccc2o1 ; system MALME-3M melanoma; TGI = > 100 µM

Record O=C(O)c1nc2ccccc2nc1Nc1ccc(F)cc1 ; system MALME-3M melanoma; TGI = > 100 µM

Record N#Cc1c(N)c2c(c(-c3ccccc3)c1-c1ccccc1)C(=O)N(NC(=O)c1ccccc1)C2=O ; system MALME-3M melanoma; TGI = > 100 µM

Record O=C(O)CCCSc1nc2ccccc2s1 ; system MALME-3M melanoma; TGI = > 100 µM

Record N#CCN1CCOCCOCCN(CC#N)CCOCCOCC1 ; system MALME-3M melanoma; TGI = > 100 µM

Record CO[C@@H]1C=C[C@@]23c4cc5c(cc4C(O)N(CC2O)C3C1)OCO5 (some centres undefined) ; system MALME-3M melanoma; TGI = > 100 µM

Record Cc1ccc(S(=O)(=O)SCc2ccccc2CSS(=O)(=O)c2ccc(C)cc2)cc1 ; system MALME-3M melanoma; TGI = > 100 µM

Record C#C[C@@]1(O)[C@@H](CO)O[C@@H](n2ccc3c(N)ncnc32)[C@@H]1O ; system MALME-3M melanoma; TGI = 5.55 µM

Record CC(CO)(CO)Nc1ncnc2ccccc12 ; system MALME-3M melanoma; TGI = > 100 µM

Record CC[N+]1(C)CCC(O)(c2ccccc2)C(C(=O)c2ccccc2)C1 (centres undefined) ; system MALME-3M melanoma; TGI = 32.6 µM

Record NC1=CN(Cc2ccccc2)C2=N/C(=C\c3ccccc3)C(=O)N12 ; system MALME-3M melanoma; TGI = > 100 µM

Record CCCCCCCCCCCCCCCCOCC(COP(=O)([O-])OCC[n+]1ccc(N(C)C)cc1)OCC (centres undefined) ; system MALME-3M melanoma; TGI = 33 µM

Record OCCNc1ncnc2c1ncn2C1OC(CO)C(O)C1O (centres undefined) ; system MALME-3M melanoma; TGI = > 100 µM

Record Nc1ncnc2c(C3OC(CO)C(O)C3O)scc12 (centres undefined) ; system MALME-3M melanoma; TGI = 24.4 µM

Record CN1C(=O)c2c(c3c4ccccc4n(C4OC(CO)C(O)C(O)C4O)c3c3[nH]c4ccccc4c23)C1=O (centres undefined) ; system MALME-3M melanoma; TGI = 1.44 µM

Record COc1cc(Br)cc2nc(-c3cccs3)oc12 ; system MALME-3M melanoma; TGI = > 100 µM

Record CN(C)/C=C(\C(=O)c1ccccc1)n1nc(-c2ccccc2)cc1-c1ccccc1 ; system MALME-3M melanoma; TGI = > 10 µM

Record COc1ccc2[nH]c(=O)c(/C=C/C(=O)/C=C/c3ccc(O)c(OC)c3)cc2c1 ; system MALME-3M melanoma; TGI = 5.28 µM

Record CC(C)c1c(O[Si](C(C)C)(C(C)C)C(C)C)c2c3c(ccc4c3c1OC4(C)C)C(C)CC2 (centres undefined) ; system MALME-3M melanoma; TGI = > 100 µM

Record CC(C)(C)OC(=O)NC1CCC[C@H]1O (some centres undefined) ; system MALME-3M melanoma; TGI = > 100 µM

Record O=C(O)CCCCCO ; system MALME-3M melanoma; TGI = > 100 µM

Record COc1ccc(OC)c(-c2nc3ccccc3c(=O)[nH]2)c1 ; system MALME-3M melanoma; TGI = > 100 µM

Record CC(C)Oc1ccc(CNC2=NCCO2)c2ccccc12 ; system MALME-3M melanoma; TGI = 28 µM

Record O=C1OC(C2=CC(=O)c3ccccc3C2=O)C(Cl)=C1Cl (centres undefined) ; system MALME-3M melanoma; TGI = 57.9 µM

Record Cc1cc(S(=O)(=O)NC2=NC(c3ccccc3)c3ccccc3N2)c(S)cc1Cl (centres undefined) ; system MALME-3M melanoma; TGI = > 100 µM

Record COc1ccc2c(c1)CC[C@@H]1[C@@H]2CC[C@]2(C)C(=O)/C(=C/c3ccncc3)C[C@@H]12 ; system MALME-3M melanoma; TGI = 77.3 µM

Record COc1cc(O)c2c(c1)C(=O)c1cc(C)cc(O)c1C2=O ; system MALME-3M melanoma; TGI = > 100 µM

Record OCc1ccc2c(c1)CC1(C2)Cc2cc3c(cc2C1)CCC3 ; system MALME-3M melanoma; TGI = > 100 µM

Record CC1(O)CC2(O)C=CC3=C(C(=O)c4cccc(O)c4C3=O)C2(O)C(=O)C1O (centres undefined) ; system MALME-3M melanoma; TGI = 0.966 µM

Record COc1ccc([C@H]2C=C(c3cc(F)c(Cl)cc3Cl)NC(=S)N2)cc1 ; system MALME-3M melanoma; TGI = > 100 µM

Record C[C@H]1CCCCC[C@@H]2CC(=O)CC2C(=O)CCC(=O)O1 (some centres undefined) ; system MALME-3M melanoma; TGI = > 100 µM

Record Nc1nc(N)c2c(ccc3nccc32)[nH]1 ; system MALME-3M melanoma; TGI = 33.6 µM

Record Fc1ccc(-c2nnc3sc(COc4ccccc4Cl)nn23)cc1Cl ; system MALME-3M melanoma; TGI = > 100 µM

Record Cc1c(C(=O)/C=C/c2ccccc2Cl)[n+](=O)c2ccccc2n1[O-] ; system MALME-3M melanoma; TGI = 29.2 µM

Record COc1ccc2c(c1)sc1nc(-c3ccccc3)c(-c3ccc(O)c(OC)c3)n12 ; system MALME-3M melanoma; TGI = > 100 µM
